Reported Retention_time values are given for each entry in this list.
# Test target: Putative nitroreductase (Staphylococcus saprophyticus subsp. saprophyticus (strain ATCC 15305 / DSM20229 / NCIMB 8711 / NCTC 7292 / S-41), UniProt Q4A0P1)
# Sequence (Q4A0P1 whole entry): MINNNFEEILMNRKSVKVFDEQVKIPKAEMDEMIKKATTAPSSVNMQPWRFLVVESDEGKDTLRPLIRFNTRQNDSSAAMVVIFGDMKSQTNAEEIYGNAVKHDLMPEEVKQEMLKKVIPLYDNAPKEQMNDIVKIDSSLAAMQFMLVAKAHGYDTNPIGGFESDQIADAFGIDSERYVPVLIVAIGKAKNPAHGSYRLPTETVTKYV
# Procedure text: Substrate activity at Staphylococcus saprophyticus nitroreductase expressed in Escherichia coli BL21 (DE3) assessed as retention time by HPLC analysis
# Format: ADME
Express the result in min but write the number alone.

Solved cases below.
O=[N+]([O-])c1ccc(N2CCC[C@H]2CO)c([N+](=O)[O-])c1 15.1
O=[N+]([O-])c1ccc(N2CCOCC2)c([N+](=O)[O-])c1 19.38
O=[N+]([O-])c1cc([N+](=O)[O-])c(Nc2ccc(Cl)cc2)cc1Nc1ccc(Cl)cc1 35
Nc1ccccc1Nc1ccc([N+](=O)[O-])cc1[N+](=O)[O-] 16.85

Okay, next one:
### Prompt Recorded Retention_time for CCNc1ccc([N+](=O)[O-])cc1[N+](=O)[O-] , please?
### Response 16.92

----------
# System: Hep 3B2
# Procedure text: Cytotoxicity against human Hep3B cells assessed as cell viability after 24 hrs by MTT assay
# Type: functional, cell-based
Measured pIC50 by item
Quick note: pIC50 means taking -log10 of the concentration in moles per liter.

### Prompt Looking for the measured pIC50 of CC(C)CC(=O)Nc1cc(N2CCOCC2)c([N+](=O)[O-])cc1[N+](=O)[O-] , can you help?
### Response 3.82

### Prompt Please look up its pIC50: O=[N+]([O-])c1ccc(Nc2ccccc2)c([N+](=O)[O-])c1
### Response 4.07

### Prompt Please report the recorded pIC50 for CCC(=O)Nc1cc(N2CCOCC2)c([N+](=O)[O-])cc1[N+](=O)[O-] .
### Response 4.04

----------
# Test target: Putative nitroreductase (Staphylococcus saprophyticus subsp. saprophyticus (strain ATCC 15305 / DSM20229 / NCIMB 8711 / NCTC 7292 / S-41), UniProt Q4A0P1)
# Procedure text: Substrate activity at Staphylococcus saprophyticus nitroreductase expressed in Escherichia coli BL21 (DE3) assessed as retention time by HPLC analysis
# Assay type: ADME
Quantity name: Retention_time (min)
State just the number; it will be interpreted in min.

Example results:
CC(C)CC(=O)Oc1cc(N2CCOCC2)c([N+](=O)[O-])cc1[N+](=O)[O-] 24.6
O=[N+]([O-])c1ccc(N2CCCCC2)c([N+](=O)[O-])c1 24.21
CN(C)C(=O)Oc1cc(N2CCOCC2)c([N+](=O)[O-])cc1[N+](=O)[O-] 19.28
CC(C)Nc1ccc([N+](=O)[O-])cc1[N+](=O)[O-] 17.94

Here is another compound to look at.
### Prompt Recorded Retention_time of O=[N+]([O-])c1ccc(Nc2cc(F)cc(F)c2)c([N+](=O)[O-])c1 , please.
### Response 17.74

----------
The compounds listed here are annotated with their viability at 24 h, up to 150 µM.
# Procedure text: Cytotoxicity against human HUVEC cells assessed as cell viability at 9 to 150 uM after 24 hrs by MTT assay relative to control
# Assay type: cell-based
# Test conditions: read-out: Activity

Completed entries (count: 3):
COc1cccc(Nc2ccc([N+](=O)[O-])cc2[N+](=O)[O-])c1 > 80%
O=C(CC(F)(F)F)Nc1cc(N2CCOCC2)c([N+](=O)[O-])cc1[N+](=O)[O-] > 80%
CCC(=O)Oc1cc(N2CCOCC2)c([N+](=O)[O-])cc1[N+](=O)[O-] 51 to 80%

### Prompt Which viability at 24 h, up to 150 µM is reported for this compound? CCC(=O)Nc1cc(N2CCOCC2)c([N+](=O)[O-])cc1[N+](=O)[O-]
### Response 51 to 80%

### Prompt Consider the compound shown here: NC(=O)c1cc(N2CC2)c([N+](=O)[O-])cc1[N+](=O)[O-] What is its recorded viability at 24 h, up to 150 µM?
### Response > 80%
